Hello, the source for this data is patent US20110160223A1, in case you need it.

- study.target: NMDA receptor (NR1 + NR2 subunits) (Rattus norvegicus, UniProt P35439+Q00960)
- Sequence (Q00960 27-1482, other chains not shown): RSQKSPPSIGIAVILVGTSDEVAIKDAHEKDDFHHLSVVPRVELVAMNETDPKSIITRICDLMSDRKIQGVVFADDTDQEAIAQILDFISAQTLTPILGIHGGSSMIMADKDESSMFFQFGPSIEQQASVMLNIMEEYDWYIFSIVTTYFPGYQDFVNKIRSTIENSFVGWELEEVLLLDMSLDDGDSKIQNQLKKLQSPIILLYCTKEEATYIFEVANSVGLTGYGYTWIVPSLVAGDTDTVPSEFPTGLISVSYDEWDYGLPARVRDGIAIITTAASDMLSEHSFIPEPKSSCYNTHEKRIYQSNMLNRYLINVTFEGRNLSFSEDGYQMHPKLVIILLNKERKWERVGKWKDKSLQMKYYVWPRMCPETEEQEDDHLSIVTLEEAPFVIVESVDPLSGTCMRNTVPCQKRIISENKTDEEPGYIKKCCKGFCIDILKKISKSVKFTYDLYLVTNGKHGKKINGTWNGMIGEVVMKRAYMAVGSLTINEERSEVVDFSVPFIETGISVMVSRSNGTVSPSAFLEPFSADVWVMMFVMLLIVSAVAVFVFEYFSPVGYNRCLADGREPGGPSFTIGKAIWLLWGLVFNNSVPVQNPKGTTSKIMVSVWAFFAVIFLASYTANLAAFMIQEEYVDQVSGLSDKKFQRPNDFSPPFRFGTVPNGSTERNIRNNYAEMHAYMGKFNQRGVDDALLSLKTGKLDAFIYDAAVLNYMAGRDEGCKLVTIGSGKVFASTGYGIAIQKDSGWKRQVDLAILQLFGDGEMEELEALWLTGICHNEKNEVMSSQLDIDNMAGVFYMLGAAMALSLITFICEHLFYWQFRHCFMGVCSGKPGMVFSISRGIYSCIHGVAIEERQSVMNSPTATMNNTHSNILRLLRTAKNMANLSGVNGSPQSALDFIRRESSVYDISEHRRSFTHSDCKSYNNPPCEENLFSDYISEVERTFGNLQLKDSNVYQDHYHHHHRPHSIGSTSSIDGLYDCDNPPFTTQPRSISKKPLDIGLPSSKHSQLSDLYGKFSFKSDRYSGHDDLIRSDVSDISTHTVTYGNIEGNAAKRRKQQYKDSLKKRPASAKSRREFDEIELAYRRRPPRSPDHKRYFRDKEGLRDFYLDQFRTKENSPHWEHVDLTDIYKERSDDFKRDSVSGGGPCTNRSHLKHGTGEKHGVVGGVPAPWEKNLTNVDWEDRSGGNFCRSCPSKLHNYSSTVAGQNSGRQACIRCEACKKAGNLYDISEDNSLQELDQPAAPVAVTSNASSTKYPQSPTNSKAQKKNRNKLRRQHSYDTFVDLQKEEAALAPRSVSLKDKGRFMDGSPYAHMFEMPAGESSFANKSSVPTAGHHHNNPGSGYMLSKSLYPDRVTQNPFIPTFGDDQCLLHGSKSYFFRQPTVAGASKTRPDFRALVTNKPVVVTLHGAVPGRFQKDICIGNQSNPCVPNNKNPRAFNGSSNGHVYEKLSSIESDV
- experiment.notes: Two electrode voltage clamp recording from Xenopus laevis oocytes (pH dependence of NMDA antagonism)
- Type: cell-based
- condition.info: pH 7.6; Table 19; read-out: IC50 at pH 7.6
- Procedure: cRNA was synthesized from linearized template cDNA for rat glutamate receptor subunits according to manufacturer specifications (Ambion). Quality of synthesized cRNA was assessed by gel electrophoresis, and quantity was estimated by spectroscopy and gel electrophoresis. […] Two electrode voltage-clamp recordings were made 2-7 days post-injection as previously described. […] Oocytes were recorded under voltage clamp at −40 mV. […]
pIC50: −log10 of the molar value.
quantity.kind: pIC50

# compound, pIC50
measured = [
    ("Oc1ccc(OC[C@H](O)CN2CCN(c3ccc(F)cc3F)CC2)cc1", 5.45),
    ("Oc1ccc(OCC(O)CNCCc2ccc(Cl)c(Cl)c2)cc1 (stereo not shown)", 6.30),
    ("Oc1ccc(OC[C@H](O)CN2CCN(c3ccc(Cl)c(Cl)c3)CC2)cc1", 6.21),
    ("Oc1ccc(OCC(O)CN2CCN(c3ccccc3Cl)CC2)cc1 (stereo not shown)", 5.36),
    ("Cc1ccccc1N1CCN(C[C@@H](O)COc2ccc(O)cc2)CC1", 5.41),
]

(I) Oc1ccc(OCC(O)CNCCc2ccc(Cl)c(Cl)c2)c(F)c1 (stereo not shown)
(II) Cc1ccc(N2CCN(CC(O)COc3ccc(O)cc3)CC2)cc1C (stereo not shown)
# argmax over pIC50 for candidates I and II Indicate which entry you chose by stating its label.
I

(A) Cc1ccc(N2CCN(CC(O)COc3ccc(O)cc3)CC2)cc1 (stereo not shown)
(B) N#Cc1ccccc1N1CCN(C[C@@H](O)COc2ccc(O)cc2)CC1
Looking at recorded values for pIC50, does A or B come in lower? Let me know the label of the one you choose.
B
(B: 5.08, A: 6.59)

(A) Oc1ccc(OCC(O)CN2CCN(c3ccc(Br)cc3)CC2)cc1 (stereo not shown)
(B) Oc1ccc(OC[C@H](O)CN2CCN(c3ccc(Cl)cc3)CC2)cc1
(C) CCCCN(CCc1ccc(Cl)c(Cl)c1)CC(O)COc1ccc(O)cc1 (stereo not shown)
Put the items in sequence by pIC50, from largest down. A ranking is expressed here by listing the labels in the requested order.
A, B, C

---

- experiment.notes: Brain exposure (brain:plasma ratio, Table 24)
- Type: in vivo, Rats
- condition.info: rat, brain and plasma, iv; 1 mg/kg i.v.; 15 m; read-out: RATIO: Brain:plasma (Direct)
quantity.kind: Kp at 15 min
Hey, just send me the number, nothing else.

Which Kp at 15 min is listed for O=C(COc1ccc2[nH]c(=O)[nH]c2c1)N1CCN(c2ccc(Cl)c(Cl)c2)CC1 [drawing 807] ?
0.04

---

- experiment.notes: Plasma half-life (i.v./i.p. pharmacokinetics, Table 23)
- Format: in vivo, Rats
- condition.info: rat, iv, 1 mg/kg, 1 MPK, 0-6 hr i.v., read-out: AUC (0-last h) i.v. XMPK
- Description: Animals were fasted overnight prior to dose administration and food returned to the animals two hours after dosing. […] The supernatant fractions were analyzed by LC-MS/MS operating in multiple reaction monitoring mode (MRM). The amount of parent compound in each sample was calculated by comparing the response of the analyte in the sample to that of a standard curve.
quantity.kind: AUC(0-t) (ng·h/mL)

# count of solved cases: 2
# compound, AUC(0-t) [ng·h/mL]
records = [
    ("O=C(COc1ccc2[nH]c(=O)[nH]c2c1)N1CCN(c2ccc(Cl)c(Cl)c2)CC1 [drawing 796]", 1100),
    ("Cc1ccc(N2CCN(C[C@H](O)COc3ccc4c(c3)CCC(=O)N4)CC2)cc1 [drawing 790]", 347),
]

(a) O=c1[nH]c2ccc(OC[C@@H](O)CN3CCN(c4ccc(F)c(F)c4)CC3)cc2[nH]1 [drawing 787]
(b) NC(=O)Nc1ccc(OC[C@@H](O)CN2CCN(c3ccc(Cl)cc3)C2=O)cc1 [drawing 794]
Lower value of AUC(0-t) belongs to which: a or b ? Identify your pick by its label.
a
(a: 452 ng·h/mL, b: 787 ng·h/mL)

---

- experiment.notes: Brain exposure (brain:plasma ratio, Table 24)
- Format: in vivo, Rats
- condition.info: rat, brain and plasma, iv, 1 mg/kg; 1MPK i.v.; 30 m; read-out: RATIO: Brain:plasma (Direct)
quantity.kind: Kp at 30 min
Write no unit; give the number alone.

I have this compound here, NC(=O)Nc1ccc(OC[C@@H](O)CN2CCN(c3ccc(Cl)cc3)CC2)cc1 [drawing 803] , and I need its recorded Kp at 30 min.
0.24

---

- study.target: human ether-a-go-go potassium channel (hERG) expressed in HEK293 cells (Homo sapiens, UniProt Q12809)
- Sequence (Q12809 whole entry): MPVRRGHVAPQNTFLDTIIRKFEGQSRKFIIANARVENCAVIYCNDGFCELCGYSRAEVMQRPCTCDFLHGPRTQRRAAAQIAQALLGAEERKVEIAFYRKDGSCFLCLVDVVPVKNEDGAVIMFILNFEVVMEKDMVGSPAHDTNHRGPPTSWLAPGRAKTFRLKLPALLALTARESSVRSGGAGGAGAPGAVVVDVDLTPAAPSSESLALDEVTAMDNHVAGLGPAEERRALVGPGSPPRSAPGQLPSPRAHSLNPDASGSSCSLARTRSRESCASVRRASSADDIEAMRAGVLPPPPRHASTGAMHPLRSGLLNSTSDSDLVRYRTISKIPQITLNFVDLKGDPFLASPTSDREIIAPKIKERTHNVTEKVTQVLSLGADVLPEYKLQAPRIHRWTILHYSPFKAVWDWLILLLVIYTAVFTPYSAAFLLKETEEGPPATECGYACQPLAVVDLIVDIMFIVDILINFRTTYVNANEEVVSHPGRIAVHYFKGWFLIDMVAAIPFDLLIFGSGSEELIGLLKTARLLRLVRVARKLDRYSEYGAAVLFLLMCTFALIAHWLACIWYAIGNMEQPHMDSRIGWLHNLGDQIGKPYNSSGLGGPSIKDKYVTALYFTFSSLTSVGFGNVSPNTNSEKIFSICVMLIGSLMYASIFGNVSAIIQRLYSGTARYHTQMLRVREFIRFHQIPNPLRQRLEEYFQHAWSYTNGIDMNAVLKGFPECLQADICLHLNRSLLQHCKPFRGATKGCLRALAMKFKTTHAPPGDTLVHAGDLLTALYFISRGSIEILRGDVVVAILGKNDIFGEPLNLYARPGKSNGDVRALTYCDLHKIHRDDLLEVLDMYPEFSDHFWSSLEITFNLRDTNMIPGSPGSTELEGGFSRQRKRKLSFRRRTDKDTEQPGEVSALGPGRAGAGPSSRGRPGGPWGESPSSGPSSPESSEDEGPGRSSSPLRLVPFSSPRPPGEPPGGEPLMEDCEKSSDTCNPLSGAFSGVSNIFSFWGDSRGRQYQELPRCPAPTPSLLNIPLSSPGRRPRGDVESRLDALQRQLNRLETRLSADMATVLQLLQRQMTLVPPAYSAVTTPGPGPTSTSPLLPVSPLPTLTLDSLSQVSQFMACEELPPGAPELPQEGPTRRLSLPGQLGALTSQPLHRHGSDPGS
Readings of pKi for the listed molecules
Scale: pKi equals -log10([C]), with [C] in mol/L.

# molecule, quantitative.result
measured = [
    ("NC(=O)Nc1ccc(OC[C@@H](O)CN2CCN(c3ccc(Cl)cc3)CC2)cc1 [drawing 778]", 4.89),
    ("Oc1ccc(OC[C@@H](O)CN2CCN(c3ccc(Cl)cc3)CC2)cc1 [drawing 775]", 4.41),
]

State the recorded pKi for this entry: `CS(=O)(=O)Nc1ccc(OC[C@@H](O)CN2CCN(c3ccc(Cl)cc3)CC2)cc1`
6.26

Okay, and O=c1[nH]c2ccc(OC[C@@H](O)CN3CCN(c4ccc(Cl)cc4)CC3)cc2o1 [drawing 776] ?
5.80

---

- study.target: NMDA receptor (NR1 + NR2 subunits) (Rattus norvegicus, UniProt P35439+Q00960)
- experiment.notes: Two electrode voltage clamp recording from Xenopus laevis oocytes (pH dependence of NMDA antagonism)
- Assay type: cell-based
- condition.info: pH 6.9; Table 17; read-out: IC50 at pH 6.9
quantity.kind: IC50 (nM)

# molecule, IC50 (nM)
rows = [
    ("CS(=O)(=O)Nc1ccc(OCC(O)CNCCNc2ccc(Cl)c(Cl)c2)cc1 (stereo not shown)", 12),
]

(A) CS(=O)(=O)Nc1ccc(OCC(O)CNCCNc2ccc(F)c(F)c2)cc1 (stereo not shown)
(B) CS(=O)(=O)Nc1ccc(OCC(O)CNCCNc2ccccc2)cc1 (stereo not shown)
Looking at A and B , which one comes out lower in IC50 terms? Give the chosen item's label as your response.
B
(B: 55 nM, A: 108 nM)

---

- experiment.notes: Oral absorption (p.o. pharmacokinetics, Table 25)
- Type: in vivo, Rats
- condition.info: rat, plasma, 5 mg/kg, 5 MPK, 0-6 hr p.o.
quantity.kind: Cmax (ng/mL)

# compound, Cmax, ng/mL
measured = [
    ("O=c1[nH]c2ccc(OC[C@@H](O)CN3CCN(c4ccc(F)c(F)c4)CC3)cc2[nH]1 [drawing 811]", 558),
    ("Cc1ccc(N2CCN(C[C@H](O)COc3ccc4c(c3)CCC(=O)N4)CC2)cc1 [drawing 812]", 407),
]

---

- experiment.notes: Brain exposure (brain:plasma ratio, Table 24)
- Type: in vivo, Rats
- condition.info: rat, brain and plasma, ip, 60 mg/kg; 60 MPK, i.p.; 30 m; read-out: RATIO: Brain:plasma (Direct)
quantity.kind: Kp at 30 min
Give the figure only, with no unit attached.

For the compound CS(=O)(=O)Nc1ccc(OC[C@@H](O)CN2CCN(c3ccc(F)c(F)c3)CC2)cc1 [drawing 802] , what Kp at 30 min is on record?
0.7

---

- experiment.notes: Brain exposure (brain:plasma ratio, Table 24)
- Type: in vivo, Rats
- condition.info: rat, brain and plasma, iv; 1 mg/kg i.v.; 30 m; read-out: RATIO: Brain:plasma (Direct)
quantity.kind: Kp at 30 min
Respond numerically, and do not add a unit to the figure.

What value of Kp at 30 min has been reported for the following molecule? O=C(COc1ccc2[nH]c(=O)[nH]c2c1)N1CCN(c2ccc(Cl)c(Cl)c2)CC1 [drawing 807]
0.06

---

- study.target: NMDA receptor (NR1 + NR2 subunits) (Rattus norvegicus, UniProt P35439+Q00960)
- experiment.notes: Two electrode voltage clamp recording from Xenopus laevis oocytes (pH dependence of NMDA antagonism)
- Format: cell-based
- condition.info: pH 6.9; Table 19; read-out: IC50 at pH 6.9
pIC50: −log10 of the molar value.
quantity.kind: pIC50

# compound, pIC50
data = [
    ("Oc1ccc(OC[C@H](O)CN2CCC(O)(c3ccccc3)CC2)cc1", 6.72),
    ("Oc1ccc(OCC(O)CN2CCN(c3ccc(C(F)(F)F)cc3)CC2)cc1 (centres unmarked)", 6.95),
    ("Oc1ccc(OCC(O)CNCCc2ccc(Cl)c(Cl)c2)c(F)c1 (centres unmarked)", 6.94),
    ("Oc1ccc(OCC(O)CN2CCN(c3ccc(F)c(F)c3)CC2)cc1 (centres unmarked)", 7.06),
    ("Oc1ccc(OC[C@H](O)CN2CCN(c3ccc(F)c(F)c3)CC2)cc1", 7.30),
    ("Oc1ccc(OCC(O)CN2CCN(c3ccccc3)CC2)cc1 (centres unmarked)", 6.66),
]

(1) Cc1cccc(N2CCN(C[C@@H](O)COc3ccc(O)cc3)CC2)c1
(2) CCCCN(CCc1ccc(Cl)c(Cl)c1)CC(O)COc1ccc(O)cc1 (centres unmarked)
(3) Oc1ccc(OC[C@H](O)CN2CCN(c3ccc(Cl)c(Cl)c3)CC2)cc1
(4) Oc1ccc(OC[C@H](O)CN2CCN(c3cccc(F)c3)CC2)cc1
Would you mind ranking these compounds by ascending pIC50? Reply with the item labels sorted in the order that was asked for.
2, 1, 4, 3
(2: 6.23, 1: 6.47, 4: 6.68, 3: 6.88)
